Target: human neutrophils (PMN) (Homo sapiens)
Sequence (P21730 1-350): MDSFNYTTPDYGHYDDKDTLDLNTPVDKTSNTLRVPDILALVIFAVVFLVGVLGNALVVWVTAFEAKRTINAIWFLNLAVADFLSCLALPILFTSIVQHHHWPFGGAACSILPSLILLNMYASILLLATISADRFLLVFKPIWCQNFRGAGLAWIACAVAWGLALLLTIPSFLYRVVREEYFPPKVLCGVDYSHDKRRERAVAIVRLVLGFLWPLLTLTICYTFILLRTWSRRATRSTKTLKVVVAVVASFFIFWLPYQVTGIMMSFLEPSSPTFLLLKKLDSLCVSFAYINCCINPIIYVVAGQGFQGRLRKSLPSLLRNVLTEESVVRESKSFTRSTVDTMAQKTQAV
Format: cell-based
Conditions: human neutrophils; read-out: PMN Polarization EC50
Ends that are not written are not given here.

{"substance": "YSFKDMQLGR-OH [peptide 2]", "value.unit": "µM", "EC50": 4}

====

Biological target: human neutrophils (PMN) (Homo sapiens, UniProt P21730)
Sequence (P21730 1-350): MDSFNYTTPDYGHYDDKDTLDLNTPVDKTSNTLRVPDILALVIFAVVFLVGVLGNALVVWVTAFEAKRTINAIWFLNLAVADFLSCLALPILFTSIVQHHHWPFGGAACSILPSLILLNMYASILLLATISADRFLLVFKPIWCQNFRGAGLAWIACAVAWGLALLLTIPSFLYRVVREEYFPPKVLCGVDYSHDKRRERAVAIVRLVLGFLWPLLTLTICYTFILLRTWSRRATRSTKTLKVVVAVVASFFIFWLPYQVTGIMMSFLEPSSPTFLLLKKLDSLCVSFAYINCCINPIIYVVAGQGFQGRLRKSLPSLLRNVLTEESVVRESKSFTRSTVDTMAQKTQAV
Format: cell-based
pEC50: −log10 of the molar value. Ends that are not written are not given here.
# if value of pEC50 reaches 4, tag true; if it stays below, tag false

{"substance": "YSFKDMQLPR-OH [peptide 3]", "class": "false"}
{"substance": "YSFKDMPPGR-OH [peptide 6]", "class": "true"}
{"substance": "YSFKGMPLGR-OH [peptide 23]", "class": "true"}
{"substance": "YSFKDCPLGR-OH [peptide 16]", "class": "true"}
{"substance": "YSFKDMPAGR-OH [peptide 11]", "class": "false"}
